Test system: MDA-MB-231
test_name: Luminescent cell viability assay (ATP)
Format: cell-based
applied_conditions: Homo sapiens, 46 hours, luciferase signal normalized to untreated cells = 1, read-out: Relative viability MDA-MB-231
Method: Compounds were assessed for effects on viability of the breast cancer cell lines MDA-MB-231 and MDA-MB-453. The cells were incubated with the compounds for 46 hours at a concentration of 5 uM. DMSO was used as vehicle control. Cell viability was assessed after approximately 46 hours by using a luminescent cell viability assay. This assay generates a luminescent signal, proportional to the amount of ATP that is present as a readout of metabolically active cells. […]
Label key: 1 means viability at 5 µM under 90%; 0 means viability at 5 µM of 90% or more.

A selection of reference data follows.
molecule	label_class
Cc1nc(N)nc(N)c1C#CC1(c2ccc(C(F)(F)F)cc2)CC1	0
Cc1nc(N)nc(N)c1C=CC1(c2cccc(C(F)(F)F)c2)CC1	0
Cc1nc(N)nc(N)c1C=CC(C)c1ccccc1Cl (stereo not shown)	1
Cc1nc(N)nc(N)c1C=CC(C)(C)c1ccc(Cl)cc1	0
Cc1nc(N)nc(N)c1C#CC1(c2ccc(OC(F)(F)F)cc2)CC1	0

In the following, a different molecule is considered.
For this molecule, is viability at 5 µM lower than 90%? Cc1nc(N)nc(N)c1C=CC1(c2ccc(Cl)cc2)CCCC1 1
